# Test system: Fusarium proliferatum
# Experimental Protocol: Antimicrobial activity against Fusarium proliferatum at 3 uM after 72 hrs by microtiter assay
# Format: functional
Each entry below carries its recorded inhibition at 3 µM.
# number only, unit % dropped from output

Past entries and their recorded results:
Compound: C[C@@H]1[C@H](O)[C@@H](C)/C=C/C=C/C=C/C=C/C=C/C=C/C=C/[C@H](O[C@@H]2O[C@H](C)[C@@H](O)[C@H](N)[C@@H]2O)C[C@@H]2O[C@](O)(C[C@@H](O)C[C@@H](O)[C@H](O)CC[C@@H](O)C[C@@H](O)CC(=O)O[C@H]1C)C[C@H](O)[C@H]2C(=O)O [AMPHOTERICIN B]
inhibition at 3 µM [%]: 0
//
Compound: C/C=C1\NC(=O)[C@H](Cc2ccccc2)NC(=O)[C@@H](C(C)C)NC(=O)[C@@H]([C@@H](C)CC)NC(=O)[C@H](NC(=O)[C@H](NC(=O)[C@H](CCCNCc2ccncc2)NC(=O)[C@H]2CCCN2C(=O)[C@H](NC(=O)[C@@H](NC(=O)[C@@H](NC(=O)[C@H](NC(=O)CCCC(C)C)C(C)C)[C@@H](C)O)C(C)C)C(C)C)[C@@H](C)CC)[C@@H](C)OC(=O)[C@H](C(C)C)NC1=O
inhibition at 3 µM [%]: 0

Prompt: Which inhibition at 3 µM value belongs to `C/C=C1\NC(=O)[C@H](Cc2ccccc2)NC(=O)[C@@H](C(C)C)NC(=O)[C@@H]([C@@H](C)CC)NC(=O)[C@H](NC(=O)[C@H](NC(=O)[C@H](CCCNCCCCCC)NC(=O)[C@H]2CCCN2C(=O)[C@H](NC(=O)[C@@H](NC(=O)[C@@H](NC(=O)[C@H](NC(=O)CCCC(C)C)C(C)C)[C@@H](C)O)C(C)C)C(C)C)[C@@H](C)CC)[C@@H](C)OC(=O)[C@H](C(C)C)NC1=O` ?
Completion: 0

* * *

# System: SK-OV-3
# Experimental Protocol: Cytotoxicity against human SK-OV3 cells
# Type: functional
Endpoint: GI50

Smiles Record: C/C=C1\NC(=O)[C@H](Cc2ccccc2)NC(=O)[C@@H](C(C)C)NC(=O)[C@@H]([C@@H](C)CC)NC(=O)[C@H](NC(=O)[C@H](NC(=O)[C@H](CCCNCc2ccncc2)NC(=O)[C@H]2CCCN2C(=O)[C@H](NC(=O)[C@@H](NC(=O)[C@@H](NC(=O)[C@H](NC(=O)CCCC(C)C)C(C)C)[C@@H](C)O)C(C)C)C(C)C)[C@@H](C)CC)[C@@H](C)OC(=O)[C@H](C(C)C)NC1=O
Result: 374 nM
//
Smiles Record: CC(=O)O[C@H]1C(=O)[C@@]2(C)[C@H]([C@H](OC(=O)c3ccccc3)[C@]3(O)C[C@H](OC(=O)[C@H](O)[C@@H](NC(=O)c4ccccc4)c4ccccc4)C(C)=C1C3(C)C)[C@]1(OC(C)=O)CO[C@@H]1C[C@@H]2O
Result: 8 nM

Please turn your attention to the following entry.
Prompt: Quick one: GI50 of `C/C=C1\NC(=O)[C@H](Cc2ccccc2)NC(=O)[C@@H](C(C)C)NC(=O)[C@@H]([C@@H](C)CC)NC(=O)[C@H](NC(=O)[C@H](NC(=O)[C@H](CCCNCc2cccs2)NC(=O)[C@H]2CCCN2C(=O)[C@H](NC(=O)[C@@H](NC(=O)[C@@H](NC(=O)[C@H](NC(=O)CCCC(C)C)C(C)C)[C@@H](C)O)C(C)C)C(C)C)[C@@H](C)CC)[C@@H](C)OC(=O)[C@H](C(C)C)NC1=O` ?
Completion: 223 nM
